- System: Yap1 mRNA
- experimental protocol: Dose-dependent inhibition of human Yap1 in A-431 cells (Example 8, 10,000 cells per well, RTS4814)
- Type: cell-based
- test conditions: A-431 cells, free uptake, approximately 48 hours, RTS4814; linear regression on log/linear plot
pIC50: −log10 of the molar value. Strand notation (5' to 3'): a small letter for the sugar, then the base; units joined by * are phosphorothioate-linked, units joined directly phosphodiester-linked; [ ] holds rarer units or linkages, { } end groups; capitals alone tell only the bases. k = constrained ethyl (cEt); [5mC] = 5-methylcytosine; d = 2'-deoxy (DNA)
reported metric: pIC50

1075498 (k[5mC]*kA*kT*dT*dA*dT*dA*dT*dA*dA*dT*dG*d[5mC]*kA*kG*kG; antisense) [compound 1075498]    7.00
1074315 (antisense kG*kA*kT*dT*dG*dA*dT*dA*dT*dT*d[5mC]*d[5mC]*dG*k[5mC]*kA*kT) [compound 1074315]    7.52
1076556 (kG*kT*kA*dT*dA*dG*dG*d[5mC]*dA*dG*dA*dA*dG*k[5mC]*kA*kA; antisense) [compound 1076556]    7.00
1076260 (k[5mC]*kT*kT*dA*dA*dT*dT*dT*dA*dA*d[5mC]*dT*d[5mC]*k[5mC]*kT*kG; antisense) [compound 1076260]    7.30
1074417 (kT*k[5mC]*kT*dT*dT*dA*dG*dA*dG*d[5mC]*d[5mC]*dA*dA*k[5mC]*kT*kG; antisense) [compound 1074417]    7.00
1075792 (kG*kA*kT*dT*dA*dG*dA*dA*dA*dG*dT*dG*d[5mC]*k[5mC]*kT*kT; antisense) [compound 1075792]    7.00
1076523 (kA*kT*kT*dT*dA*dT*dA*dT*d[5mC]*dA*dG*dG*dT*k[5mC]*kA*kA; antisense) [compound 1076523]    7.00

---

- experimental protocol: Cynomolgus monkey tolerability, kidney and liver function markers (Example 34)
- test conditions: cynomolgus monkeys, 35 mg/kg subcutaneously, day 44
reported metric: BUN (mg/dL)

1198872 (TGTATGTCAGAAGAGT; chemically modified gapmer, further chemistry not given here) [compound 1198872]    27
1198831 (CACTTTTACATTAGGA; chemically modified gapmer, further chemistry not given here) [compound 1198831]    26
1198605 (GTAATATTGCAATCTG; modified gapmer, further chemistry not given here) [compound 1198605]    22
1197270 (TTAAAGTGTATGTCAG; cEt gapmer with 2'-OMe nucleoside, phosphorothioate, further chemistry not given here) [compound 1197270]    27
1198440 (AAGTGTATGTCAGAAG; cEt, 2'-MOE, 5-methylcytosine, phosphorothioate modifications, further chemistry not given here) [compound 1198440]    26
1076453 (GTAATATTGCAATCTG; 3-10-3 cEt gapmer, further chemistry not given here) [compound 1076453]    27

---

- experimental protocol: Tolerability in Sprague-Dawley rats, plasma chemistry markers (Example 21)
- Format: in vivo
- test conditions: male Sprague-Dawley rats, 50 mg/kg s.c. weekly for 6 weeks (7 doses), 48 hours after last dose
Marks after values point to notes of the source that are not given here. Strand notation (5' to 3'): a small letter for the sugar, then the base; units joined by * are phosphorothioate-linked, units joined directly phosphodiester-linked; [ ] holds rarer units or linkages, { } end groups; capitals alone tell only the bases. e = 2'-O-(2-methoxyethyl) (MOE); k = constrained ethyl (cEt); [5mC] = 5-methylcytosine; d = 2'-deoxy (DNA)
Some substances, each annotated with its measured AST.
reported metric: AST

1074756 (kG*k[5mC]*kA*d[5mC]*dT*dT*dT*dT*dA*d[5mC]*dA*dT*dT*kA*kG*kG) [compound 1074756]    79* U/L
1198439 (AGTGTATGTCAGAAGA; sugar, 5-methylcytosine, phosphorothioate modifications, further chemistry not given here) [compound 1198439]    94* U/L
1198873 (kA*kG*dT*dG*dT*dA*dT*dG*dT*d[5mC]*dA*kG*eA*kA*eG*kA; antisense) [compound 1198873]    79* U/L
1198440 (AAGTGTATGTCAGAAG; cEt, 2'-MOE, 5-methylcytosine, phosphorothioate modifications, further chemistry not given here) [compound 1198440]    108** U/L
1198874 (kA*kA*dG*dT*dG*dT*dA*dT*dG*dT*d[5mC]*kA*eG*kA*eA*kG) [compound 1198874]    102 U/L

---

Attribute: YAP1 (% UTC)
- Tested on: Yap1 mRNA
- experimental protocol: Antisense inhibition of human Yap1 in A-431 cells by cEt gapmers, single dose (Example 3, RTS36584)
- Assay type: cell-based
- test conditions: Table 8; A-431 cells, 5,000 cells per well, free uptake, 2,000 nM, approximately 48 hours; RTS36584; normalized to RIBOGREEN; Yap1 mRNA relative to untreated control cells
Strand notation (5' to 3'): a small letter for the sugar, then the base; units joined by * are phosphorothioate-linked, units joined directly phosphodiester-linked; [ ] holds rarer units or linkages, { } end groups; capitals alone tell only the bases. k = constrained ethyl (cEt); [5mC] = 5-methylcytosine; d = 2'-deoxy (DNA)
reported metric: YAP1 (% UTC)

958400 (antisense kT*kT*kG*dA*d[5mC]*d[5mC]*dA*dA*d[5mC]*dT*dA*d[5mC]*dT*kT*kG*kA) [Compound 958400]    26
958388 (antisense kG*kG*kA*dG*dG*d[5mC]*dG*d[5mC]*dG*d[5mC]*dG*d[5mC]*dA*kT*kT*kG) [Compound 958388]    112
958420 (antisense kT*kT*k[5mC]*dA*dT*dA*dA*dT*d[5mC]*dT*dG*dA*d[5mC]*kT*kA*kG) [Compound 958420]    66

---

# Yap1 mRNA, % UTC values compiled below
- System: Yap1 mRNA
- experimental protocol: Dose-dependent inhibition of human Yap1 in A-431 cells (Example 8, 10,000 cells per well, RTS4814)
- Assay type: cell-based
- test conditions: 500.0 nM; A-431 cells, 10,000 cells per well, free uptake, approximately 48 hours, RTS4814
Strand notation (5' to 3'): a small letter for the sugar, then the base; units joined by * are phosphorothioate-linked, units joined directly phosphodiester-linked; [ ] holds rarer units or linkages, { } end groups; capitals alone tell only the bases. k = constrained ethyl (cEt); [5mC] = 5-methylcytosine; d = 2'-deoxy (DNA)
reported metric: Yap1 mRNA, % UTC (% UTC)

1076491 (kA*kG*k[5mC]*d[5mC]*dA*dA*dA*dA*dT*dA*dG*dG*dT*kG*kA*kG; antisense) [compound 1076491]    21
1076456 (k[5mC]*kT*kT*dT*dA*dA*dA*dG*dT*dG*dT*dA*dT*kG*kT*k[5mC]) [compound 1076456]    5
1076481 (k[5mC]*kT*kA*dA*dG*dT*dA*dA*dG*dG*dT*dT*dT*k[5mC]*k[5mC]*k[5mC]) [compound 1076481]    2
1076288 (k[5mC]*kT*kT*dA*dT*dT*dT*dA*dG*d[5mC]*dA*dT*dA*kG*kT*kG; antisense) [compound 1076288]    3
1076386 (antisense kA*kG*kT*dT*dA*dT*dA*dA*d[5mC]*dA*dG*dT*dG*kT*kA*kA) [compound 1076386]    11

---

Catalogue of YAP1 (% UTC) values
- Tested on: Yap1 mRNA
- experimental protocol: Antisense inhibition of human Yap1 in A-431 cells by cEt gapmers, single dose (Example 2, RTS4814)
- Type: cell-based
- test conditions: Table 25; Yap1 mRNA as percent of untreated control; 3-10-3 cEt gapmers targeting SEQ ID NO.: 1, and 2
Strand notation (5' to 3'): a small letter for the sugar, then the base; units joined by * are phosphorothioate-linked, units joined directly phosphodiester-linked; [ ] holds rarer units or linkages, { } end groups; capitals alone tell only the bases. k = constrained ethyl (cEt); [5mC] = 5-methylcytosine; d = 2'-deoxy (DNA)
reported metric: YAP1 (% UTC)

1075851 (kG*k[5mC]*k[5mC]*dG*dA*dA*dT*dA*dT*dG*dG*dG*dA*kA*kA*kA; antisense) [Compound 1075851]    70
1075595 (kT*kA*kT*dA*dA*dT*dA*d[5mC]*dA*dT*d[5mC]*dT*d[5mC]*k[5mC]*k[5mC]*k[5mC]; antisense) [Compound 1075595]    50
1075563 (k[5mC]*k[5mC]*kA*dT*dA*dT*dA*dA*d[5mC]*d[5mC]*dA*dG*dT*kT*kT*kT; antisense) [Compound 1075563]    12
1076107 (k[5mC]*kA*kT*dT*dA*d[5mC]*d[5mC]*dA*dA*d[5mC]*dT*dT*d[5mC]*kT*kT*k[5mC]; antisense) [Compound 1076107]    23
1075467 (antisense k[5mC]*kA*kT*dT*dA*dA*dT*dG*d[5mC]*d[5mC]*dA*dT*d[5mC]*k[5mC]*kA*kA) [Compound 1075467]    60
1075915 (kA*kA*kT*dT*dT*dA*dG*dG*dA*dT*dG*d[5mC]*d[5mC]*kT*kT*kT; antisense) [Compound 1075915]    16
1074731 (antisense k[5mC]*kA*kG*dG*dT*dA*dT*d[5mC]*dA*d[5mC]*dA*dG*dT*kA*k[5mC]*kT) [Compound 1074731]    19
1076075 (kA*k[5mC]*kA*d[5mC]*dA*dA*dG*dG*dG*dT*dT*dG*d[5mC]*kT*kA*kA; antisense) [Compound 1076075]    38
1076427 (k[5mC]*kA*kA*dA*dT*dT*dT*dA*d[5mC]*dT*dG*dA*dT*k[5mC]*kT*k[5mC]; antisense) [Compound 1076427]    3
1074475 (kA*k[5mC]*k[5mC]*dA*dA*d[5mC]*d[5mC]*d[5mC]*d[5mC]*d[5mC]*d[5mC]*d[5mC]*dA*k[5mC]*k[5mC]*kG; antisense) [Compound 1074475]    72
1075147 (antisense kT*kA*kT*dA*dA*dA*d[5mC]*d[5mC]*dT*dT*dA*d[5mC]*dA*kG*kT*kA) [Compound 1075147]    57
1075051 (antisense kA*kA*kT*dA*dA*dA*d[5mC]*dA*dA*d[5mC]*d[5mC]*d[5mC]*dA*kA*k[5mC]*kG) [Compound 1075051]    56
1074763 (kT*kG*k[5mC]*dT*dA*d[5mC]*d[5mC]*d[5mC]*dA*dA*dT*dA*d[5mC]*kA*kA*k[5mC]; antisense) [Compound 1074763]    25
1074891 (antisense kT*kG*kA*dA*dG*dT*dT*dT*dA*dG*d[5mC]*d[5mC]*dT*kG*kA*kA) [Compound 1074891]    31
1075723 (kT*kT*kA*dT*d[5mC]*d[5mC]*dT*dA*dT*d[5mC]*d[5mC]*d[5mC]*dT*kG*kG*kT; antisense) [Compound 1075723]    32
1076395 (kG*kT*kA*dA*d[5mC]*dT*dA*dA*d[5mC]*d[5mC]*dT*dA*dA*kG*kG*kA; antisense) [Compound 1076395]    34
1074411 (antisense kT*kG*kT*dG*dA*dA*dA*dG*dA*dG*dG*dT*d[5mC]*kA*kG*k[5mC]) [Compound 1074411]    3
1075307 (kA*kT*kT*dA*dA*dA*d[5mC]*dG*dA*dA*dA*d[5mC]*dA*k[5mC]*kG*kG; antisense) [Compound 1075307]    28
1074507 (kA*kT*kA*dA*dT*d[5mC]*dG*dA*dG*dA*dT*dT*dT*kA*kA*kA; antisense) [Compound 1074507]    74
